Hey, just so you know, these numbers are from patent US8354381B2.

Tested on: pellicle coated bovine enamel
protocol_notes: Phage ELISA on pellicle coated bovine enamel (Example 6)
Assay type: binding, human
cond: 10^11 pfu phage, 30 min in vivo pellicle on bovine enamel, normalized to an internal control
Reported O.D.450 (normalized) values are given for each entry in this list.

sequence_content	O.D.450 (normalized)
GMPTRYYHNTPPHLTPKF (Synthetic oral-surface binding peptide) [DenP8]	1.182
DHNNRQHAVEVRENKTHTAR (Synthetic oral-surface binding peptide) [DenP21]	0.728
KAPIANMLQPHSYQYSVA (Synthetic oral-surface binding peptide) [DenP18]	1.143
DLGTFPNRTLKMAAH (Synthetic oral-surface binding peptide) [DenP11]	1.663
TTGSSSQADTSASMSIVPAH (Synthetic oral-surface binding peptide) [DenP17]	0.971
YLLPKDQTTAPQVTPIVQHK (Synthetic oral-surface binding peptide) [DenP5]	1.087
IYPNESMSTSNVRGPYHP (Synthetic oral-surface binding peptide) [DenP22]	1.420
GPQHVLMQDTHQGYAFDN (Synthetic oral-surface binding peptide) [DenP16]	2.190
